experiment: Stability of the compound in human AD293 cells assessed as intact compound remaining at 20 uM measured after 24 hrs by LC-MS analysis; format: ADME, cell-based; settings: read-out: Stabilty
Where a SMILES comes first, the peptide text is derived from it. [ ]: non-standard residue; d: D form. βAla = NCCC(=O)O
Readout Type: remaining at 24 h, 20 µM

>>> result("CC[C@H](C)[C@@H]1NC(=O)[C@H](CC(=O)O)NC(=O)[C@H](Cc2c[nH]c3ccccc23)NC(=O)CCNC(=O)[C@H](CC(N)=O)NC(=O)[C@H](CC(N)=O)NC(=O)[C@H](CC(N)=O)NC1=O (cyclo(DINNN[βAla]W))")
"94.7%"
